Values compiled from patent US20080071116A1.

Molecular target: LPA3 receptor (Homo sapiens)
Sequence (Q9UBY5 whole entry): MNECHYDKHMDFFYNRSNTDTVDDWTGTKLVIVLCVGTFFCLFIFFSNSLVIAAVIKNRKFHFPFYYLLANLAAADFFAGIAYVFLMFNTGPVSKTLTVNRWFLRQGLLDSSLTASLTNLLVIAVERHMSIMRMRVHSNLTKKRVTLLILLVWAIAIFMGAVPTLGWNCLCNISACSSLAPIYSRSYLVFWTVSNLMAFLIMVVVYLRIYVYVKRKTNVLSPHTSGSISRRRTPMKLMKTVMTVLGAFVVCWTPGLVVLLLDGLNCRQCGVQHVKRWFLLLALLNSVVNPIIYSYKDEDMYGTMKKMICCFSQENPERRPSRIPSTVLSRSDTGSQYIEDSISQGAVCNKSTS
Assay: calcium mobilization in Sf9 insect cells expressing LPA3
Details: read-out: EC50 of increase in intracellular calcium concentration
pEC50: −log10 of the molar value.

# Compound, Measurement target, pEC50
data = [
    ("CCCCCCCC/C=C\\CCCCCCCC(=O)OCC(COP(O)(O)=S)OC (racemic)", "LPA3 receptor (Homo sapiens)", 7.16),
]

* * *

Biological target: LPA1 receptor (Homo sapiens)
Sequence (Q92633 whole entry): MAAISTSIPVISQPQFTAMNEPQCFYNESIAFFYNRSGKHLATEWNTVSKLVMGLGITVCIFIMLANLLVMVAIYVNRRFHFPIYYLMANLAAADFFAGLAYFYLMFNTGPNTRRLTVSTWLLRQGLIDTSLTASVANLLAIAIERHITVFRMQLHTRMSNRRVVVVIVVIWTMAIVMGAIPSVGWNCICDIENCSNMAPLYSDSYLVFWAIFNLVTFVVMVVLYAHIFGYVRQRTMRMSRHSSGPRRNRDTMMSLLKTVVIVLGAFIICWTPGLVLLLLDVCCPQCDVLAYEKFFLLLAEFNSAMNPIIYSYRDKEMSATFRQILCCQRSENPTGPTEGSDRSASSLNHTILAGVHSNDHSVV
Assay: calcium mobilization in Sf9 insect cells expressing LPA1
pEC50: −log10 of the molar value.
Readout type: pEC50

# Compound, Reported value
measured = [
    ("CCCCCCCC/C=C\\CCCCCCCC(=O)OCC(COP(O)(O)=S)OC (racemic) [OMPT]", "< 5.00"),
]
